- study-system: T1, recombinant human DLL4 (C-terminally His-tagged extracellular domain, R&D Systems) (human, UniProt Q9NR61 25-522, biotinylated in the competition ELISA)
- T1 construct: also called rhDLL4; hDLL4
- T1 sequence (Q9NR61 25-522): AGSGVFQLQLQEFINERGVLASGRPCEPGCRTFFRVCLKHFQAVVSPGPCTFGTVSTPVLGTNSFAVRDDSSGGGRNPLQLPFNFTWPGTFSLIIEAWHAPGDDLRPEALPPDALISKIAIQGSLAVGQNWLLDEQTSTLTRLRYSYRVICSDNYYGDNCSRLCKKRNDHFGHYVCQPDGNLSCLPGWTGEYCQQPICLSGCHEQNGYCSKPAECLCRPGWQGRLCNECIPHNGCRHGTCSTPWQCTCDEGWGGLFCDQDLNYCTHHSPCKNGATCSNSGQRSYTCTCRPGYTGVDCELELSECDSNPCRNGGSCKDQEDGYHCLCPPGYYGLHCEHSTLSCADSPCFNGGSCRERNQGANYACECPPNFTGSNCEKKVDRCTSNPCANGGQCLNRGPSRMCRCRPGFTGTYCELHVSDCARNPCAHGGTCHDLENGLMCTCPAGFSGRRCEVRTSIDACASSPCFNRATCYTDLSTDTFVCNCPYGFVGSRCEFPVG
- assay-remarks: SPR (Biacore), rhDLL4
Listed here are binders together with their documented kon.
measurement-name: kon (M⁻¹ s⁻¹)

binder | measurement-name | numeric-value
DLLBII133G05 (VHH, not shown: small tags and cut ends) VHH: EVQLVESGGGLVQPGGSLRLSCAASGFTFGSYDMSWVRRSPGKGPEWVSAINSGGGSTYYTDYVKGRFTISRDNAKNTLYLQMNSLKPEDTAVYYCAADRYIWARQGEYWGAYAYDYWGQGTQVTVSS | kon | 590000
DLLBII129E11 (VHH, not shown: small tags and cut ends) VHH: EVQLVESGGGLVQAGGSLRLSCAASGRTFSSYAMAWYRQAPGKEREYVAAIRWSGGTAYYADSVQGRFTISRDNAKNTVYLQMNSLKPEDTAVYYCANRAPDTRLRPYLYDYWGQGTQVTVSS | kon | 190000
DLLBII115A05 (VHH, not shown: small tags and cut ends, parent VHH; also called 115A05 (wt); 115A5) VHH: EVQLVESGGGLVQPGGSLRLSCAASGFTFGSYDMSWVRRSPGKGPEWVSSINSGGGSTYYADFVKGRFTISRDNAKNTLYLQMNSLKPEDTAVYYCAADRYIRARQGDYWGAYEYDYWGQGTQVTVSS | kon | 250000
DLLBII015 (VHH, not shown: small tags and cut ends) VHH: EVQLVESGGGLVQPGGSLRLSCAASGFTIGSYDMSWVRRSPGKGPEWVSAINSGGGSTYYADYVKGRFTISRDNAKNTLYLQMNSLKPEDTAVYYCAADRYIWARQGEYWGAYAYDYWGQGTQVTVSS | kon | 450000
